- System: TYKNU
- Experiment description: fractional viability relative to vehicle; higher = less growth inhibition
- Measurement parameters: 2uM; 72 h; genotype: sgCTRLA1 (non-targeting control)
In all, about 2,000 compounds were measured (“fractional viability relative to vehicle”: median about 0.91, lowest 2% from about 0.045 on). Shown is part of a subset that was picked to be rich in the lowest values.
Assay endpoint: fractional viability

compound=COc1cc(-c2cc(-c3ccc(N4CCNCC4)cc3)cnc2C)cc(OC)c1OC assay_endpoint="fractional viability" quantitative_result=1.02
compound="O=C(O)Cc1ccccc1Nc1c(Cl)cccc1Cl [Diclofenac Potassium]" assay_endpoint="fractional viability" quantitative_result=1.13
compound="CN1CCN(c2ccc3nc(-c4c(N)c5c(F)cccc5[nH]c4=O)[nH]c3c2)CC1 [Dovitinib (TKI-258, CHIR-258)]" assay_endpoint="fractional viability" quantitative_result=0.465
compound=CN(C)CC(=O)Nc1ccc2[nH]c(=O)c3ccccc3c2c1 assay_endpoint="fractional viability" quantitative_result=1.06
compound="CN1CCN(c2ccc3nc(-c4c(N)c5c(F)cccc5[nH]c4=O)[nH]c3c2)CC1 [Dovitinib (TKI258) Lactate]" assay_endpoint="fractional viability" quantitative_result=0.423
compound="CN(N=O)C(=O)NC1C(O)OC(CO)C(O)C1O (centres undefined) [Streptozotocin (STZ)]" assay_endpoint="fractional viability" quantitative_result=1.2
compound="O=C(O)Cc1ccccc1Nc1c(Cl)cccc1Cl [Diclofenac Sodium]" assay_endpoint="fractional viability" quantitative_result=0.938
compound=O=C1NC(=O)/C(=C/c2ccc3nccc(-c4ccncc4)c3c2)S1 assay_endpoint="fractional viability" quantitative_result=0.7
compound=COc1ccc(-c2cnc3c(-c4cccc5ncccc45)cnn3c2)cc1 assay_endpoint="fractional viability" quantitative_result=1.28

###

- Test system: TYKNU
- Experiment description: fractional viability relative to vehicle; higher = less growth inhibition
- Measurement parameters: 2uM; 72 h; genotype: DNM1L knockout (sgDNM1L #1)
Counter-ions that a name gives are not always drawn. Over roughly 2,000 compounds, “fractional viability relative to vehicle” has its median near 0.91; the lowest 2% begin near 0.045. For the sample, the lowest values were picked, then their nearest neighbours and some compounds at random.
Consider the cut-off 0.9. If the recorded fractional viability is strictly smaller, the label is yes (1); if not, the label is no (0).

compound="O=C1CCC[C@@H]2[C@H]3CCC[N+]4([O-])CCC[C@@H](CN12)[C@@H]34 (stereo partly specified)" label_class="no (0)"
compound=NC(=O)N/N=C/c1ccc([N+](=O)[O-])o1 label_class="no (0)"
compound=Cc1cc(-c2ncc(CC(=O)Nc3ccc(-c4cnccn4)cn3)cc2C)ccn1 label_class="yes (1)"
compound=CC[C@H]1[C@@H](O)[C@@H]2[C@H](CC[C@]3(C)[C@@H]([C@H](C)CCC(=O)O)CC[C@@H]23)[C@@]2(C)CC[C@@H](O)C[C@@H]12 label_class="yes (1)"
compound=O=C(O)CCNc1cc(N2CCc3ccccc3CC2)nc(-c2ccccn2)n1 label_class="no (0)"
compound=CC1(C)CC(=O)c2c(C(F)(F)F)nn(-c3ccc(C(N)=O)c(N[C@H]4CC[C@H](OC(=O)CN)CC4)c3)c2C1 label_class="no (0)"
compound="CN1CCN(c2ccc(C(=O)Nc3n[nH]c4ccc(Cc5cc(F)cc(F)c5)cc34)c(NC3CCOCC3)c2)CC1 [Entrectinib (RXDX-101)]" label_class="yes (1)"
compound=Cc1ccc(NC(=O)C2(c3ccc4c(c3)OC(F)(F)O4)CC2)nc1-c1cccc(C(=O)O)c1 label_class="no (0)"
compound="O=C(NC1CCN(CCCCC2(C(=O)NCC(F)(F)F)c3ccccc3-c3ccccc32)CC1)c1ccccc1-c1ccc(C(F)(F)F)cc1 [Lomitapide Mesylate]" label_class="yes (1)"
compound=CCN(C(=O)c1c(O)c2c(Cl)cccc2n(C)c1=O)c1ccccc1 label_class="no (0)"
compound="CC(O)c1cc(C(=O)N[C@@H](C)Cn2ccc(-c3ccc(C#N)c(Cl)c3)n2)n[nH]1 (stereo partly specified)" label_class="yes (1)"
compound=CCN1C[C@H](C)n2c(c(O)c3c(=O)n(Cc4ccc(F)c(Cl)c4)nc(C(=O)NC)c32)C1=O label_class="no (0)"
compound=C=CC(=O)Nc1cc(Nc2nccc(-c3cn(C)c4ccccc34)n2)c(OC)cc1N(C)CCN(C)C label_class="yes (1)"

###

- System: TYKNU
- Experiment description: fractional viability relative to vehicle; higher = less growth inhibition
- Measurement parameters: 10uM; 72 h; genotype: sgCTRLA1 (non-targeting control)
The full ranking holds about 2,000 compounds; the median of “fractional viability relative to vehicle” is about 0.91, and the lowest 2% start at about 0.045. This is one part of a sample in which the lowest values are shown more often than they occur.
Assay endpoint: fractional viability

compound=Cc1[nH]c(/C=C2\C(=O)Nc3ccc(S(=O)(=O)Cc4c(Cl)cccc4Cl)cc32)c(C)c1C(=O)N1CCC[C@@H]1CN1CCCC1 test_target=TYKNU quantitative_result=0.0167
compound="CC(O)c1cc(C(=O)N[C@@H](C)Cn2ccc(-c3ccc(C#N)c(Cl)c3)n2)n[nH]1 (some centres undefined)" test_target=TYKNU quantitative_result=0.769
compound=CN(C)c1ccc(-c2nc3ncc(Cl)c(N4CCN(CC(=O)Nc5nccs5)CC4)c3[nH]2)cc1 test_target=TYKNU quantitative_result=0.714
compound=Cc1ccc(C(=O)Nc2ccc(CN3CCN(C)CC3)c(C(F)(F)F)c2)cc1C#Cc1cnc2[nH]ncc2c1 test_target=TYKNU quantitative_result=0.0116
compound="O=C(O)Cc1ccccc1Nc1c(Cl)cccc1Cl [Diclofenac Sodium]" test_target=TYKNU quantitative_result=0.967
compound=c1coc(CNc2ncnc3[nH]cnc23)c1 test_target=TYKNU quantitative_result=0.431
compound=CN(C)c1nc(N(C)C)nc(N(C)C)n1 test_target=TYKNU quantitative_result=1.03
compound=Cc1cc(C)c(CNC(=O)c2cc(-c3ccc(N4CCN(C)CC4)nc3)cc3c2c(C)cn3C(C)C)c(=O)[nH]1 test_target=TYKNU quantitative_result=0.609
compound=CC1(C)C=C(CN2C/C(=C\c3ccc(F)cc3)C(=O)/C(=C/c3ccc(F)cc3)C2)C(C)(C)N1O test_target=TYKNU quantitative_result=0.755

###

- System: TYKNU
- Experiment description: fractional viability relative to vehicle; TYKNU is a high-grade serous ovarian cancer line; higher = less growth inhibition
- Measurement parameters: 10uM; 72 h; genotype: sgCTRLA1 (non-targeting control)
Over roughly 2,000 compounds, “fractional viability relative to vehicle” has its median near 0.91; the lowest 2% begin near 0.045. The list comes from a sample in which the lowest values are over-represented; it also holds close analogues and randomly drawn compounds.
// reported fractional viability for each item listed
Assay endpoint: fractional viability

compound=Cc1cnc(Nc2ccc(OCCN3CCCC3)cc2)nc1Nc1cccc(S(=O)(=O)NC(C)(C)C)c1 assay_endpoint="fractional viability" result=0.0573
compound="CN(C)CCc1c[nH]c2ccc(CS(=O)(=O)N3CCCC3)cc12 [Almotriptan Malate]" assay_endpoint="fractional viability" result=1.02
compound=CC(C)Oc1ccc(C(=O)N[C@H](CNC(=O)CN(C)C)Cc2ccc(-c3cn4cccc([C@H](C)O)c4n3)cc2)cc1Cl assay_endpoint="fractional viability" result=0.438
compound="CCC[S+]([O-])c1ccc2[nH]c(NC(=O)OC)nc2c1 (stereo not given) [Albendazole Oxide]" assay_endpoint="fractional viability" result=0.562
compound=COc1cc2c(Oc3ccc(NC(=O)C4(C(=O)Nc5ccc(F)cc5)CC4)cc3F)ccnc2cc1OCCCN1CCOCC1 assay_endpoint="fractional viability" result=0.0418
compound="CCCSc1nc(N[C@@H]2C[C@H]2c2ccc(F)c(F)c2)c2nnn([C@@H]3C[C@H](OCCO)[C@@H](O)[C@H]3O)c2n1 [Ticagrelor]" assay_endpoint="fractional viability" result=0.903
compound=COc1ncc(-c2ccc3nccc(-c4ccnnc4)c3c2)cc1NS(=O)(=O)c1ccc(F)cc1F assay_endpoint="fractional viability" result=0.0352
compound=CCO[C@@H]1OC(=O)C[C@@H]1NC(=O)[C@@H]1CCCN1C(=O)[C@@H](NC(=O)c1ccc(N)c(Cl)c1)C(C)(C)C assay_endpoint="fractional viability" result=1.09
compound=Cc1cnc(Nc2ccc(N3CCN(C)CC3)cc2)nc1Nc1cccc(S(=O)(=O)NC(C)(C)C)c1 assay_endpoint="fractional viability" result=0.0804
compound="CCCS(=O)(=O)Nc1ccc(F)c(C(=O)c2c[nH]c3ncc(-c4ccc(Cl)cc4)cc23)c1F [Vemurafenib (PLX4032, RG7204)]" assay_endpoint="fractional viability" result=0.974
compound="CC#CCn1c(N2CCC[C@@H](N)C2)nc2c1c(=O)n(Cc1nc(C)c3ccccc3n1)c(=O)n2C [Linagliptin]" assay_endpoint="fractional viability" result=0.986
compound="Cc1c(C(=O)NN2CCCCC2)nn(-c2ccc(Cl)cc2Cl)c1-c1ccc(Cl)cc1 [Rimonabant]" assay_endpoint="fractional viability" result=0.753
compound=C=CC(=O)Nc1cccc(Nc2nc(Nc3ccc(OCCOC)cc3)ncc2F)c1 assay_endpoint="fractional viability" result=0.297
compound="CC[C@H]1OC(=O)C[C@@H](O)[C@H](C)[C@@H](O[C@@H]2O[C@H](C)[C@@H](O)[C@H](N(C)C)[C@H]2O)[C@@H](CCN2C[C@H](C)C[C@H](C)C2)C[C@@H](C)C(=O)/C=C/C(C)=C/[C@@H]1CO[C@@H]1O[C@H](C)[C@@H](O)[C@@H](OC)[C@H]1OC [Tilmicosin]" assay_endpoint="fractional viability" result=1.11
compound=COc1cc2c(Nc3ccc(NC(=O)c4ccccc4)cc3)ncnc2cc1OCCCN1CCOCC1 assay_endpoint="fractional viability" result=0.22

Where do these numbers come from? They come from the supplement of paper PMC5919970.
